# activation at 0.1 µM annotations
tested_system: glucocerebrosidase (Gcase) (Homo sapiens, UniProt P04062)
Construct: micellar solution containing 10 nM GCase and 100 nM saposin C
Sequence (P04062 40-536): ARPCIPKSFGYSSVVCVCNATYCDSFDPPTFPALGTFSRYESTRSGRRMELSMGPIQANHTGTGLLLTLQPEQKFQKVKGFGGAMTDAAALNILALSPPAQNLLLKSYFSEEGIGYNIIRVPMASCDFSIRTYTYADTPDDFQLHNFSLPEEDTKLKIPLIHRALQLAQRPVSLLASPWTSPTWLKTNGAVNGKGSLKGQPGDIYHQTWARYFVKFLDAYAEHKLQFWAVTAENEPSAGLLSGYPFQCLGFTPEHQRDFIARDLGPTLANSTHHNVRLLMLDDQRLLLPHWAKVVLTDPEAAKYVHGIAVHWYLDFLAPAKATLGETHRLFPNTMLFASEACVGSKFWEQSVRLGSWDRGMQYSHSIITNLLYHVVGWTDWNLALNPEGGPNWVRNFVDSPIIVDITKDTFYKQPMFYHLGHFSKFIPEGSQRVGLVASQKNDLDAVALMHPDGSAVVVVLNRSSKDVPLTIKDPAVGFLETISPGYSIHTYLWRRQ
test: Glucocerebrosidase (Gcase) activation assay, 4-methylumbelliferyl-beta-D-glucopyranoside substrate, fluorescence readout
Type: biochemical
applied_conditions: test compound at 0.1 μM; read-out: Percent Gcase Activation, 0.1 μM Test Compound
Procedure: The ability of exemplary compounds to activate glucocerebrosidase (Gcase) was measured. A 484 μL aliquot of a 1.0 mg/mL solution of phosphatidylserine (PS) (Sigma P7769) in chloroform was evaporated under a stream of nitrogen for 1 hour. The lipid film was dissolved over 4 minutes of vigorous vortexing in 40 mL of 176 mM K2HPO4/50 mM citric acid (pH 4.7) containing 7.5 μL of triton X-100, resulting in a mixed micellar preparation with a composition of 0.32 mM triton and 0.37 mol % PS. […]

Enquiry: Could you share which activation at 0.1 µM value was measured for `Cc1cc(C)n2ccc(C(=O)N[C@@H]3CCc4ccccc43)c2n1` ?
Return: > 20%

Enquiry: Next entry: `CO[C@H]1CC[C@H](C(C)(C)NC(=O)c2ccn3c(C)cc(C)nc23)CC1`
Return: 10 to 20%

Enquiry: Entry Cc1ccnc2c(C(=O)NC3(C)CCOc4c(F)cccc43)ccn12 (stereo not shown) please
Return: < 10%

Enquiry: And what about the compound `CC[C@@H](NC(=O)c1ccn2c(C)cc(C)nc12)c1ccccc1` ?
Return: > 20%

Enquiry: Next compound: `Cc1cc(C)n2ccc(C(=O)N[C@H]3CC[C@@H](OCC(C)(C)C)CC3)c2n1`
Return: > 20%

Enquiry: Next compound: `Cc1cc(C)n2ccc(C(=O)N[C@H]3CC[C@H](Oc4ncccn4)CC3)c2n1`
Return: < 10%

Enquiry: `CC[C@H](C)O[C@H]1CC[C@H](NC(=O)c2ccn3c(C)cc(C)nc23)CC1` ?
Return: 10 to 20%

Enquiry: Similarly, `CCCCCO[C@H]1CC[C@@H](NC(=O)c2ccn3c(C)cc(C)nc23)C1` ?
Return: < 10%

Enquiry: Then what about the compound `Cc1cc(C)n2ccc(C(=O)N[C@H](C)c3ccccc3)c2n1` ?
Return: > 20%

Enquiry: Can you handle [2H]C1(NC(=O)c2ccn3c(C)cc(C)nc23)CCCc2ccccc21 (stereo not shown) next?
Return: > 20%

Turning to the following compound.
Enquiry: Dear colleague, I am looking for the recorded activation at 0.1 µM of the following compound: Cc1cc(C)n2ccc(C(=O)NC3CCCC4(CCCCO4)C3)c2n1 (stereo not shown)
Return: 10 to 20%
